Entries annotated with measured residual kinase activity, ULK1
TESTED_TARGET: ULK1 (Homo sapiens, UniProt O75385)
Sequence (O75385 whole entry, species assumed): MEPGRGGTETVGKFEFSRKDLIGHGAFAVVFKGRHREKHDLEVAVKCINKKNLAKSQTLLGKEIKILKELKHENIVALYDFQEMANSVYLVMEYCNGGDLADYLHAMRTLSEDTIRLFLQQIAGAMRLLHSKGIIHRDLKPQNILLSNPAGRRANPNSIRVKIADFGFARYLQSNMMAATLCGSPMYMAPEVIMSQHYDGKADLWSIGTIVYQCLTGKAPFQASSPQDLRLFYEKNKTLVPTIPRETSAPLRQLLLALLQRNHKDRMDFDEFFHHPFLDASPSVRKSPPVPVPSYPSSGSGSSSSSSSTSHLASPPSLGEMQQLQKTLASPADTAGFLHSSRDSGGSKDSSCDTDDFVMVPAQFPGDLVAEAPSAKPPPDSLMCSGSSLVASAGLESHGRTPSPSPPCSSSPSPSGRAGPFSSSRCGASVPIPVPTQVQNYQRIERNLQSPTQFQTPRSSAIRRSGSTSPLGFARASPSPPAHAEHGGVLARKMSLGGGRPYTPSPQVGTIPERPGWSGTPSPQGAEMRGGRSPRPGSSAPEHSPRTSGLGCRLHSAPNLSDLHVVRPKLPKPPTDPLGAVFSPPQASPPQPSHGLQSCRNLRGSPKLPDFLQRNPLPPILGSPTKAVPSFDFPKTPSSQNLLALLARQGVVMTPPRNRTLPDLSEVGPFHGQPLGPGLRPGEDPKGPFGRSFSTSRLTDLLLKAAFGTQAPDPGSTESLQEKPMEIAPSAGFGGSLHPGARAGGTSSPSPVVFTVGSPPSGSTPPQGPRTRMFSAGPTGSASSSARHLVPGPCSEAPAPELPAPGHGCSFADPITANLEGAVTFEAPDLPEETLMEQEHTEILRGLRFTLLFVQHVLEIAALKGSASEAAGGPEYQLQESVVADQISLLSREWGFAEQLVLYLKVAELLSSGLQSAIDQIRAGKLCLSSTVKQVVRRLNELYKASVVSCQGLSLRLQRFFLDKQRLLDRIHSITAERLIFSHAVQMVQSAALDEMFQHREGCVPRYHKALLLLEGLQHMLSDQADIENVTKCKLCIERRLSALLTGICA
ASSAY_DETAILS: Kinase profiling ULK1
Format: biochemical
PARTICULARS: 100 micromolar inhibitor concentration; 100 is no change
OBSERVABLE: residual kinase activity, ULK1

In [3]: df
Out[3]:
                 structure_string                        tested_target  endpoint_result
0  O=C(Nc1nc2ccc(O)cc2s1)c1ccccn1  ULK1 (Homo sapiens, UniProt O75385)               96
1  O=C(Nc1nc2cc(O)ccc2s1)c1ccccn1  ULK1 (Homo sapiens, UniProt O75385)               78
2  O=C(Nc1nc2cc(O)ccc2s1)c1ccncc1  ULK1 (Homo sapiens, UniProt O75385)               90
3  O=C(Nc1nc2ccc(O)cc2s1)c1ccccc1  ULK1 (Homo sapiens, UniProt O75385)               47
4  O=C(Nc1nc2cc(O)ccc2s1)c1cccnc1  ULK1 (Homo sapiens, UniProt O75385)               88
